Biological target: T1, human Ang-2 (human, UniProt O15123)
T1 chain: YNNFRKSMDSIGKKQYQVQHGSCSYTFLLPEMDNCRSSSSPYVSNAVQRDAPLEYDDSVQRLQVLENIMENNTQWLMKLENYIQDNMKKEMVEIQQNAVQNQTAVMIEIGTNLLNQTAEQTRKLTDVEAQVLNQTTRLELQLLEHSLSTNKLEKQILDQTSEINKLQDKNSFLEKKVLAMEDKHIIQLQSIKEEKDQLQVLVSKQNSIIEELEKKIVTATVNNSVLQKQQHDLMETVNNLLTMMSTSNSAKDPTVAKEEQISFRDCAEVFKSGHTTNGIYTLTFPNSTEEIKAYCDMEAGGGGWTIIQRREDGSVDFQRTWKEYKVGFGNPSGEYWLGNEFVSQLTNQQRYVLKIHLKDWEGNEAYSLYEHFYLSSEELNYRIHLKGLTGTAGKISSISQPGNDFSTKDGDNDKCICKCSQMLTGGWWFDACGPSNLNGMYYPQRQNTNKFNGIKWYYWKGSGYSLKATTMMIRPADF
Assay: competition ELISA vs Tie-2
Primed or numbered codes have the meaning given here. Where no end group is shown, it is not given here. [ ]: non-standard residue; d: D form. Fc = immunoglobulin Fc domain fused to the peptide (peptibody); Fc(7) = Fc domain, peptide fused N- or C-terminal to it
Reported IC50 is given for each of the following binders.
measurement_label: IC50 (nM)

| binder | measurement_label | units_symbol | result_modifier | observed_measurement |
| --- | --- | --- | --- | --- |
| M[Fc(7)]GGGGGAQRPEDMCSQWDPWTWHLQGYCLE (not fully specified (bridges); cysteine pairing not given here) [Con4-26 (C)] | IC50 | nM | > | 1000 |
| M[Fc(7)]GGGGGAQMGGAGRCEWDPWTCQLLQGWLE (not fully specified (bridges); cysteine pairing not given here) [Con4-13 (C)] | IC50 | nM | > | 1000 |
| M[Fc(7)]GGGGGAQDKILEECEWDPWTCRLLQGWLE (not fully specified (bridges); cysteine pairing not given here) [AC3-Con4 (C)] | IC50 | nM | > | 1000 |
| M[Fc]GGGGGAQPRLQEECVWDPWTCEHMPLRLE (not fully specified; cysteine pairing not given here) [Con4-38 (C)] | IC50 | nM | = | 0.4 |
| M[Fc(7)]GGGGGAQTSQRVGCEWDPWTCQHLTYTLE (not fully specified (bridges); cysteine pairing not given here) [Con4-23 (C)] | IC50 | nM | = | 9.88 |
| M[Fc(7)]GGGGGAQQVIGRPCEWDPWTCEHLEGLLE (not fully specified (bridges); cysteine pairing not given here) [Con4-20 (C)] | IC50 | nM | = | 0.48 |
| M[Fc]GGGGGAQPMNQVECDWDPWTCEHMPRSLE (not fully specified; cysteine pairing not given here) [Con4-33 (C)] | IC50 | nM | = | 0.52 |
| M[Fc]GGGGGAQVKTQEHCDWDPWTCEHMREWLE (not fully specified; cysteine pairing not given here) [Con4-34 (C)] | IC50 | nM | = | 0.28 |
| M[Fc]GGGGGAQKSGQVECNWDPWTCEHMPRNLE (not fully specified; cysteine pairing not given here) [Con4-36 (C)] | IC50 | nM | = | 0.28 |
| M[Fc]GGGGGAQLPGQEDCEWDPWTCEHMVRSLE (not fully specified; cysteine pairing not given here) [Con4-37 (C)] | IC50 | nM | = | 0.49 |
| M[Fc(7)]GGGGGAQAWGQEGCDWDPWTCEHMLPMLE (not fully specified (bridges); cysteine pairing not given here) [Con4-28 (C)] | IC50 | nM | = | 0.3 |
| M[Fc(7)]GGGGGAQNRLQEVCEWDPWTCEHMENVLE (not fully specified (bridges); cysteine pairing not given here) [Con4-31 (C)] | IC50 | nM | = | 0.16 |
